# targetEntity: recombinant HSF1 DNA-binding domain (DBD) (Homo sapiens)
# testSummary: Differential Scanning Fluorimetry (DSF), HSF1 DBD melting temperature
# testSettings: Table 3; 5 μM HSF1 DBD, 25PM Compound; positive = stabilizes, negative = destabilizes HSF1
measurementLabel: ΔTm at 25 µM (°C)

Reported ΔTm at 25 µM for O=C(Nc1ccccc1)Nc1ccc(Cl)c(Cl)c1 [Compound 022, 1-(3,4-dichlorophenyl)-3-phenylurea] : what is it?
2.78

Next entry: O=c1c(Nc2ccc(F)c(F)c2)c(Nc2ccc(Cl)c(C(F)(F)F)c2)c1=O [Compound 092]
2.33

What about N#Cc1ccc(NC(=O)Nc2ccc(Cl)c(S(=O)(=O)C(F)(F)F)c2)cc1CCN1CCOCC1 [Compound 286] ?
-6.23

Now the same for O=C(Nc1ccccc1)Nc1cccc(Cl)c1 [Compound 091, 1-(3-chlorophenyl)-3-phenylurea]
2.5

====

# targetEntity: recombinant HSF1 DNA-binding domain (DBD) (Homo sapiens)
# Sequence (Q00613 15-120): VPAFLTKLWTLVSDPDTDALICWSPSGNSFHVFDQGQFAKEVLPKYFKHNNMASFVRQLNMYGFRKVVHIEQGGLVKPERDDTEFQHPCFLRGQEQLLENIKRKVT
# testSummary: Differential Scanning Fluorimetry (DSF), HSF1 DBD melting temperature
# testSettings: Table 1; 5 μM HSF1 DBD, 25PM Compound; positive = stabilizes, negative = destabilizes HSF1
measurementLabel: ΔTm at 25 µM (°C)

Take a look at these entries with their results.
Fill blank: measured ΔTm at 25 µM of the compound O=c1c(Nc2ccc(F)cc2)c(Nc2ccc(Cl)c(S(=O)(=O)C(F)(F)F)c2)c1=O is ____.
2.08

Please give the result for N#C/C(=C(/Oc1ccc(Cl)cc1Cl)C(F)(F)F)c1ccccc1 too.
-4.4

[I] COc1cccc(-c2cnc(Nc3ccc(F)cc3)s2)c1
[II] O=S1(=O)N=C(Nc2ccc(F)cc2)C(Nc2ccc(Cl)c(C(F)(F)F)c2)=N1
When the recorded ΔTm at 25 µM values are compared, which is smaller: that of I or that of II ? Record your answer as the label of the chosen record.
II

[I] O=C(Nc1ccc(F)cc1)Nc1cccc(Cl)c1
[II] Cc1ccc(CNC(=O)CSc2nnc(-c3cccc(N)c3)n2-c2ccccc2)cc1
[III] O=C(N/C=C/c1ccsc1)Nc1cc(Cl)ccc1F
Task field, ranking: reported ΔTm at 25 µM, descending order. Give the order by naming the labels one after another as requested.
III, I, II
(III: 5.43 °C, I: 2.5 °C, II: -9.46 °C)

====

# targetEntity: recombinant HSF1 DNA-binding domain (DBD) (Homo sapiens, UniProt Q00613)
# testSummary: Differential Scanning Fluorimetry (DSF), HSF1 DBD melting temperature
# testSettings: Table 1; 5 μM HSF1 DBD, 25PM Compound; positive = stabilizes, negative = destabilizes HSF1
measurementLabel: ΔTm at 25 µM (°C)

Worked cases, answers included:
Fill in: ΔTm at 25 µM of O=[N+]([O-])c1cc(C(F)(F)F)cc([N+](=O)[O-])c1Oc1ccc(I)cc1 [Compound 0077] is ___
2.5

Now the same for O=c1c(Nc2ccc(F)c(F)c2)c(Nc2ccc(Cl)c(S(=O)(=O)C(F)(F)F)c2)c1=O [Compound 0016]
2.75

# repeat for O=c1c(Nc2ccc(F)c(F)c2)c(Nc2ccc(Cl)c(C(F)(F)F)c2)c1=O [Compound 0092]
2.33

// repeat for Cc1ccc(NC(=O)Nc2ccc(Br)c(C(F)(F)F)c2)cc1 [Compound 0075] and report
2.61

Another: O=[N+]([O-])c1cc(C(F)(F)F)cc([N+](=O)[O-])c1Oc1ccc(C2SCCS2)cc1 [Compound 0062]
-6.9

[1] COc1ccc(NC(=O)Nc2ccc(Cl)cc2)cc1 [Compound 0036]
[2] Oc1ccc(Cl)cc1/C=N/Nc1cccc(C(F)(F)F)c1 [Compound 0024]
[3] O=[N+]([O-])c1cc(/C=N/Nc2ccc(Br)c(Cl)c2)cs1 [Compound 0038]
Ascending sort, ΔTm at 25 µM. When ranking, write the labels in the order the request describes.
1, 2, 3
(1: 2.61 °C, 2: 4.44 °C, 3: 7.27 °C)

====

# targetEntity: recombinant HSF1 DNA-binding domain (DBD) (Homo sapiens)
# testSummary: Differential Scanning Fluorimetry (DSF), HSF1 DBD melting temperature
# testSettings: Table 3; 5 μM HSF1 DBD, 25PM Compound; positive = stabilizes, negative = destabilizes HSF1
measurementLabel: ΔTm at 25 µM (°C)

Known results for compounds:
Item under review: O=C(Nc1cccc(Cl)c1)Nc1ccc(Cl)c([N+](=O)[O-])c1 . Reported ΔTm at 25 µM?
2.94

Try the compound Cc1ccc(NC(=O)Nc2ccc(Cl)c([N+](=O)[O-])c2)cc1
4.3

Follow-up entry: N#Cc1ccc(NC(=O)Nc2ccc(CCN3CCOCC3)c(S(=O)(=O)C(F)(F)F)c2)cc1
3.2

[1] O=C(Nc1ccc(Cl)cc1)Nc1cccc([N+](=O)[O-])c1
[2] O=S1(=O)N=C(Nc2ccc(F)cc2)C(Nc2ccc(Cl)c(C(F)(F)F)c2)=N1
Between the two listed entries 1 and 2 , which has its ΔTm at 25 µM at the higher number? Please reply using the label of the selected record.
1

====

# targetEntity: recombinant HSF1 DNA-binding domain (DBD) (Homo sapiens, UniProt Q00613)
# testSummary: Differential Scanning Fluorimetry (DSF), HSF1 DBD melting temperature
# testSettings: Table 1; 5 μM HSF1 DBD, 25PM Compound; positive = stabilizes, negative = destabilizes HSF1
measurementLabel: ΔTm at 25 µM (°C)

Past entries and their recorded results:
Using the record for Cc1cc([N+](=O)[O-])cc([N+](=O)[O-])c1Sc1ncc2ccccn12 [Compound 0093] , report its ΔTm at 25 µM.
-3.44

Continue with N#Cc1cc(NC(=O)Nc2ccc(F)cc2)ccc1Cl [Compound 0083]
2

Try the compound O=C(Nc1ccc(F)cc1)Nc1ccc2nonc2c1 [Compound 0027]
2.8

Entry O=C(Nc1ccc(Cl)cc1)Nc1ccc(Cl)cc1 [Compound 0018, 1,3-bis(4-chlorophenyl)urea] please
2.44

Same read-out for O=C(Nc1cc(Cl)ccc1O)c1ccccc1CSc1ccc(Cl)cc1 [Compound 0104] ?
3.27

[a] O=C(Nc1ccccc1)Nc1cccc(Cl)c1 [Compound 0091, 1-(3-chlorophenyl)-3-phenylurea]
[b] CC(C)(C)c1ccc(-c2nnc(SCC(=O)NCc3ccccc3)n2-c2ccccc2)cc1 [Compound 0084]
Looking at recorded values for ΔTm at 25 µM, does a or b come in lower? # answer = label of selected item
b

====

# targetEntity: recombinant HSF1 DNA-binding domain (DBD) (Homo sapiens)
# Sequence (Q00613 15-120): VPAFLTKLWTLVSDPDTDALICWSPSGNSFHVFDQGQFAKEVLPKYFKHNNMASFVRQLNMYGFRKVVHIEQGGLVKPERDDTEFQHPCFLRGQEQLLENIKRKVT
# testSummary: Differential Scanning Fluorimetry (DSF), HSF1 DBD melting temperature
# testSettings: Table 3; 5 μM HSF1 DBD, 25PM Compound; positive = stabilizes, negative = destabilizes HSF1
measurementLabel: ΔTm at 25 µM (°C)

Form: Entry = COc1ccc(NC(=O)Nc2ccc(Cl)cc2)cc1 | System = recombinant HSF1 DNA-binding domain (DBD) (Homo sapiens) | ΔTm at 25 µM = ____
2.61

Now consider COc1ccc(NC(=O)Nc2ccc(C)cc2)cc1 and answer again.
2.61

Can you handle O=C(Nc1ccc(F)cc1)Nc1cccc(Cl)c1 next?
2.5

And for O=C(Nc1ccc(F)cc1)Nc1ccc2nonc2c1 ?
2.8

Further, for O=C(Nc1ccc(F)cc1)Nc1ccc(Cl)cc1 ?
2.61

Follow-up entry: N#Cc1ccc(NC(=O)Nc2ccc3c(c2)S(=O)(=O)C=C3)cc1CN1CCOCC1
-4.4

Another compound to look at: O=C(Nc1ccc(Cl)c([N+](=O)[O-])c1)Nc1ccc(F)c(C2(C(F)(F)F)N=N2)c1
2.92

What would you report for O=C(Nc1ccc(F)cc1)Nc1cccc([N+](=O)[O-])c1 ?
2.61

[I] O=C(Nc1ccc(Cl)cc1)Nc1ccc(Cl)cc1
[II] O=C(Nc1ccc(F)cc1)Nc1ccc(Cl)nc1
Between these two entries, I and II , state which has the higher ΔTm at 25 µM. // caller expects the label of the chosen entry
I
(I: 2.44 °C, II: 0.67 °C)

[P] Cc1ccc(NC(=O)Nc2cccc(Cl)c2)cc1
[Q] O=c1c(Nc2ccc(F)cc2)c(Nc2ccc(Cl)c([N+](=O)[O-])c2)c1=O
Look at P and Q . Which one has the lower recorded ΔTm at 25 µM number? Respond with the label that goes with your answer.
Q

====

# targetEntity: recombinant HSF1 DNA-binding domain (DBD) (Homo sapiens)
# testSummary: Differential Scanning Fluorimetry (DSF), HSF1 DBD melting temperature
# testSettings: Table 1; 5 μM HSF1 DBD, 25PM Compound; positive = stabilizes, negative = destabilizes HSF1
// reported ΔTm at 25 µM for each item listed
Response body: numeric value in °C, unit text excluded.

// solved cases for ΔTm at 25 µM follow
Give the measured ΔTm at 25 µM of O=[N+]([O-])c1cc(C(F)(F)F)cc([N+](=O)[O-])c1Oc1ccc(F)cc1F .
-4.73

Cool, now CSc1ccc(Oc2c([N+](=O)[O-])cc(C(F)(F)F)cc2[N+](=O)[O-])cc1
-5.56

Next: Cc1cc(Oc2c([N+](=O)[O-])cc(C(F)(F)F)cc2[N+](=O)[O-])c2c(Cl)ccc(C)c2n1
-5.21

Now this one: O=C(Nc1cccc(Cl)c1)Nc1ccc(Cl)c([N+](=O)[O-])c1
2.94

Would you mind doing O=C(Nc1ccc(Cl)cc1)Nc1ccc(Cl)c(Cl)c1 as well?
4.78

Turning to the following compound.
Name the recorded ΔTm at 25 µM for CC1CC(=O)Oc2cc(Oc3c([N+](=O)[O-])cc(C(F)(F)F)cc3[N+](=O)[O-])ccc21 (stereo not drawn) .
-6.23
